Recorded values, source paper PMC10895676.

Test: Hydrolysis in CEM/0 cell extracts
Format: in vitro ADME
Conditions: human, dephosphorylation, read-out: t1/2 in CEM/0 cell extracts
Measured attribute: half-life at 0.86 mM

compound="Cc1cn([C@H]2C=C[C@@H](COP(=O)(O)OP(=O)(O)OP(=O)(O)OP(=O)(O)O)O2)c(=O)[nH]c1=O [d4T4P]" measured_attribute="half-life at 0.86 mM" result_value="22 min"

* * *

Test system: HIV-2 (ROD)
Experiment: Anti-HIV replication assay, HIV-2 (ROD) in thymidine kinase-deficient CEM/TK– cells
Type: cell-based
Conditions: Human immunodeficiency virus 2; CEM/TK– cells; mean ± SD, n = 2–3; read-out: CEM/TK– HIV-2 (ROD) EC50
pEC50: −log10 of the molar value.
Measured attribute: pEC50

compound=CCCCCCCCCCCCOP(=O)(OCCCCCCCCCCCC)OP(=O)(O)OP(=O)(O)OP(=O)(O)OC[C@@H]1C=C[C@H](n2cc(C)c(=O)[nH]c2=O)O1 test_system="HIV-2 (ROD)" measured_attribute=pEC50 readout_qualifier== result_value=7.54
compound="CCCCCCCCCCCCCCCCCCOP(=O)(OCC(CC)CCCC)OP(=O)(O)OP(=O)(O)OP(=O)(O)OC[C@@H]1C=C[C@H](n2cc(C)c(=O)[nH]c2=O)O1 (stereo partly shown)" test_system="HIV-2 (ROD)" measured_attribute=pEC50 readout_qualifier== result_value=6.37
compound="Cc1cn([C@H]2C=C[C@@H](CO)O2)c(=O)[nH]c1=O [d4T, 3′-deoxy-2′,3′-didehydrothymidine, reference compound]" test_system="HIV-2 (ROD)" measured_attribute=pEC50 readout_qualifier=< result_value=4.30
compound=CCCCCCCCCC(=O)Oc1ccc(COP(=O)(OCc2ccc(OC(=O)CCCCCCCCC)cc2)OP(=O)(O)OP(=O)(O)OP(=O)(O)OC[C@@H]2C=C[C@H](n3cc(C)c(=O)[nH]c3=O)O2)cc1 test_system="HIV-2 (ROD)" measured_attribute=pEC50 readout_qualifier== result_value=5.35
